System: S. cerevisiae
TEST_NAME: in vitro
TEST_PARAMETERS: Saccharomyces cerevisiae
// concentrations at which not toxic, S. cerevisiae cytotoxicity testing lookup, one value per entry
OBSERVABLE: concentrations at which not toxic, S. cerevisiae cytotoxicity testing

>  <COMPOUND>
CC(C)NC(=O)Nc1ccc(Oc2nc3ccc(Cl)cc3s2)cc1

>  <RESULT>
≥ 100 µM

$$$$
>  <COMPOUND>
CNC(=O)C(C)c1ccc(Oc2nc3ccc(Cl)cc3s2)cc1 (stereo not drawn)

>  <RESULT>
≥ 100 µM

$$$$
>  <COMPOUND>
CC(C(=O)O)c1ccc(Oc2nc3ccc(Cl)cc3s2)cc1 (stereo not drawn)

>  <RESULT>
≥ 100 µM

$$$$
>  <COMPOUND>
CONC(=O)C(C)c1ccc(Oc2nc3ccc(Cl)cc3s2)cc1 (stereo not drawn)

>  <RESULT>
≥ 100 µM

$$$$
>  <COMPOUND>
NC(=O)Cc1ccc(Oc2nc3ccc(Cl)cc3s2)cc1

>  <RESULT>
≥ 100 µM

$$$$
>  <COMPOUND>
CC(C(=O)NCCN(C)C)c1ccc(Oc2nc3ccc(Cl)cc3s2)cc1 (stereo not drawn)

>  <RESULT>
≥ 100 µM

$$$$
>  <COMPOUND>
O=C(O)Cc1ccc(Oc2nc3cc(F)c(F)cc3s2)cc1

>  <RESULT>
≥ 100 µM

$$$$
>  <COMPOUND>
CNC(=O)Cc1c(F)cc(Oc2cnc3cc(Cl)ccc3n2)cc1F

>  <RESULT>
≥ 100 µM

$$$$
>  <COMPOUND>
CC(C)NC(=O)Nc1ccc(Oc2nc3c(F)cccc3s2)cc1

>  <RESULT>
≥ 100 µM

$$$$
>  <COMPOUND>
CN1CCN(C(=O)Nc2ccc(Oc3nc4ccc(Cl)cc4s3)cc2)CC1

>  <RESULT>
≥ 100 µM

$$$$
>  <COMPOUND>
CC(C)(C)OC(=O)NCCC(=O)Nc1ccc(Oc2nc3ccc(F)cc3s2)cc1

>  <RESULT>
≥ 100 µM

$$$$
>  <COMPOUND>
CNC(=O)Cc1ccc(Oc2nc3ccc(F)cc3s2)cc1F

>  <RESULT>
≥ 100 µM

$$$$
>  <COMPOUND>
CC(C(=O)N1CCN(C)CC1)c1ccc(Oc2nc3cc(F)c(F)cc3s2)cc1 (stereo not drawn)

>  <RESULT>
≥ 100 µM

$$$$
>  <COMPOUND>
CNC(=O)Cn1ccc(Oc2nc3ccc(F)cc3s2)cc1=O

>  <RESULT>
≥ 100 µM

$$$$
>  <COMPOUND>
O=C(O)Cc1ccc(Oc2cnc3cc(Cl)ccc3n2)cc1

>  <RESULT>
≥ 100 µM

$$$$
>  <COMPOUND>
CNC(=O)Cc1ccc(Oc2nc3ccc(Cl)cc3s2)cc1

>  <RESULT>
≥ 100 µM

$$$$
>  <COMPOUND>
CC(C)NC(=O)Nc1ccc(Oc2nc3ccc(C(F)(F)F)cc3s2)cc1

>  <RESULT>
≥ 100 µM

$$$$
>  <COMPOUND>
O=C(Cc1ccc(Oc2nc3ccc(F)cc3s2)cc1)N1CCNCC1

>  <RESULT>
≥ 100 µM

$$$$
>  <COMPOUND>
O=C(Cc1ccc(Oc2nc3ccc(Cl)cc3s2)cc1)N1CCNCC1

>  <RESULT>
≥ 100 µM

$$$$
>  <COMPOUND>
O=C(Cc1ccc(Oc2nc3ccc(F)cc3s2)cc1)NCCO

>  <RESULT>
≥ 100 µM

$$$$
>  <COMPOUND>
CC(C)(C)OC(=O)Nc1ccc(Oc2nc3ccc(Cl)cc3s2)cc1

>  <RESULT>
≥ 100 µM

$$$$
